Provenance of the data: paper PMC12319226

# assay.system: T1, fHbp mutant 0018 (Neisseria meningitidis, fHbp v1.1 mutant, point mutant)
# T1 chain: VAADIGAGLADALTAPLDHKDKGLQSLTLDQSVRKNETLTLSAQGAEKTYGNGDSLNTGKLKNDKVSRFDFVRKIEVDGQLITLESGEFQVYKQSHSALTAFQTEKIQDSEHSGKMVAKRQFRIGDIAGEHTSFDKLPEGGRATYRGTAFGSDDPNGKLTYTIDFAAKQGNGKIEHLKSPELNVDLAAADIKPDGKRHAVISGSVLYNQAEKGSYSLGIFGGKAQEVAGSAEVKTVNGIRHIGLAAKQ
# measurement.description: BLI
# condition: both partners purified
Exercise: state measured Kd for each of the binders provided.
One number for each entry, in nM.

mAb 1E6 (human) (antibody, V domains shown, source: Expi293, purified (MabSelect SuRe, SEC); copies: 2 + 2) VH: EVQLVQSGAEVKKPGSSVKVSCKASGGTVIDYPITWVRQAPGQGLEWVGGFVPLFRTSNYGQKFQGRVTITADKSTSTASMELNSLTSEDTAIYYCARGDTAMGPFDYWGQGTLVTVSS VL: SYVLTQPPSLSVAPGKTATLTCGGNNIAGKTVHWYQQRPGQAPVLVISYDSDRPSGIPERFSGSNSANTATLTISRVEAGDEADYYCQVWDRNSDHWVFGGGTKLTVL = 1.04
mAb JAR5 (mouse) (antibody, V domains shown, source: Expi293, purified (MabSelect SuRe, SEC); copies: 2 + 2) VH: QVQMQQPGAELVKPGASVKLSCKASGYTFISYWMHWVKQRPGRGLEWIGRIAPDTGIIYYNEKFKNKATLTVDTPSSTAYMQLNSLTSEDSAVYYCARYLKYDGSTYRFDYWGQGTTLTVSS VL: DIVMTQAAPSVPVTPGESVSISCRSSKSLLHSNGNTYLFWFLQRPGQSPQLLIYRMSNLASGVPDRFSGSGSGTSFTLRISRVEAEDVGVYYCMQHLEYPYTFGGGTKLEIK = 0.404

Please turn your attention to the following entry.
Return reported Kd; argument: mAb 4B3 (human) (antibody, V domains shown, also called 4B3-2; source: Expi293, purified (MabSelect SuRe, SEC); copies: 2 + 2) VH: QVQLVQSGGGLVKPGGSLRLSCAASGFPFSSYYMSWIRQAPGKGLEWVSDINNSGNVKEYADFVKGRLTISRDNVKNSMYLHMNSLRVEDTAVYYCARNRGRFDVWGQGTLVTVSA VL: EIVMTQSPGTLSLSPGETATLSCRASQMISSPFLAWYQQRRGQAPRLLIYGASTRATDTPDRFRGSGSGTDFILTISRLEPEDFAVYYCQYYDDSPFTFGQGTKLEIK 2.36
